Data provenance: patent US20240140991A1

System: K. pneumoniae ATCC 11228
Format: cell-based, Klebsiella pneumoniae
Cond: ATCC 11228
Positions of bridges follow the written chain, without caps; N, C: chain ends. Non-standard residues stand in square brackets, D forms with d. Residues, ends and D or L forms follow the SMILES beside them. ξ: configuration not given here. *: point of attachment. Hexanoyl(4ξ-Me) = CCC(C)CCC(=O)*; Decanoyl = CCCCCCCCCC(=O)*; dOrn = NCCC[C@@H](N)C(=O)O; Orn = NCCC[C@H](N)C(=O)O; Dap = NC[C@H](N)C(=O)O; Hexanoyl = CCCCCC(=O)*
Quantity Kind: Minimum inhibitory concentration (MIC) (µg/mL)
Express it in µg/mL; write the number only.

Molecule	Measured Target	Units Text	Minimum inhibitory concentration (MIC)
CCCCCC(=O)N[C@H](CO)C(=O)N[C@H](Cc1ccc(O)cc1)C(=O)N[C@H](Cc1c[nH]c2ccccc12)C(=O)N[C@H](CCCN)C(=O)N[C@@H](CCCN)C(=O)NCC(=O)N[C@H](CCCN)C(=O)N[C@@H](Cc1c[nH]c2ccccc12)C(=O)N[C@@H]1C(=O)N[C@@H]([C@@H](C)CC)C(=O)N[C@@H](CC(N)=O)C(=O)NCC(=O)NCC(=O)O[C@@H]1C [Compound C6] (Hexanoyl-[dS][dY][dW][dOrn][Orn]G[dOrn]WTINGG; ester 9-C)	K. pneumoniae ATCC 11228	µg/mL	2

Hey, K. pneumoniae ATCC 11228 data for CCC(C)CCC(=O)N[C@H](CO)C(=O)N[C@H](Cc1ccc(O)cc1)C(=O)N[C@H](Cc1c[nH]c2ccccc12)C(=O)N[C@H](CCCN)C(=O)N[C@@H](CCCN)C(=O)NCC(=O)N[C@H](CCCN)C(=O)N[C@@H](Cc1c[nH]c2ccccc12)C(=O)N[C@H]1CNC(=O)CNC(=O)[C@H](CO)NC(=O)CNC(=O)[C@H]([C@@H](C)CC)NC1=O (stereo partly drawn) [Dap9-Relacidamide A] ({Hexanoyl(4ξ-Me)}-[dS][dY][dW][dOrn][Orn]G[dOrn]W[Dap]IGSG; lactam 9-C) : Minimum inhibitory concentration (MIC) came out at 2

Hey, K. pneumoniae ATCC 11228 data for CC[C@H](C)[C@@H]1NC(=O)[C@@H](NC(=O)[C@H](Cc2c[nH]c3ccccc23)NC(=O)[C@@H](CCCN)NC(=O)CNC(=O)[C@H](CCCN)NC(=O)[C@@H](CCCN)NC(=O)[C@@H](Cc2c[nH]c3ccccc23)NC(=O)[C@@H](Cc2ccc(O)cc2)NC(=O)[C@@H](CO)NC(C)=O)[C@@H](C)OC(=O)CNC(=O)CNC(=O)[C@H](CC(N)=O)NC1=O [Compound C2] (Ac-[dS][dY][dW][dOrn][Orn]G[dOrn]WTINGG; ester 9-C) : Minimum inhibitory concentration (MIC) came out at 16

Hey, K. pneumoniae ATCC 11228 data for CCCCCCCCCC(=O)N[C@H](CO)C(=O)N[C@H](Cc1ccc(O)cc1)C(=O)N[C@H](Cc1c[nH]c2ccccc12)C(=O)N[C@H](CCCN)C(=O)N[C@@H](CCCN)C(=O)NCC(=O)N[C@H](CCCN)C(=O)N[C@@H](Cc1c[nH]c2ccccc12)C(=O)N[C@@H]1C(=O)N[C@@H]([C@@H](C)CC)C(=O)N[C@@H](CC(N)=O)C(=O)NCC(=O)NCC(=O)O[C@@H]1C [Compound C10] (Decanoyl-[dS][dY][dW][dOrn][Orn]G[dOrn]WTINGG; ester 9-C) : Minimum inhibitory concentration (MIC) came out at 1
